Each item that follows carries a reported Percent Effect.
- System: Leishmania donovani
- protocol_details: Leishmania intramacrophage assay
- Type: functional, organism-based
- Parameters: scale not given: in the data most compounds retested in dose-response had high values
- condition_parameters: 30.3 µM; […]
Among all 69,000 compounds or so, about 1,000 (1.4%) showed an effect of 50% or more. For the sample, strong results were picked, then their nearest neighbours and some compounds at random.
reported_property: Percent Effect (%)

- compound: "O=C(CC1NC(N2CCc3ccccc32)=NC1=O)Nc1ccc(Cl)cc1 (stereo unspecified)"
  reading_unit: "%"
  reported_value: 9.68
- compound: "CCOCCC(=O)N(C)CC1Cc2ccccc2CN1C (stereo unspecified)"
  reading_unit: "%"
  reported_value: 29.01
- compound: "COC(=O)NCC(=O)N(C)CC1Cc2ccccc2CN1C (stereo unspecified)"
  reading_unit: "%"
  reported_value: 52.66
- compound: "CCN(C)Cc1nc(-c2ccccc2NS(C)(=O)=O)oc1C"
  reading_unit: "%"
  reported_value: 2.546
- compound: "COC(=O)CCCC(=O)N(C)CC1Cc2ccccc2CN1C (stereo unspecified)"
  reading_unit: "%"
  reported_value: 11.82
- compound: "O=C(Cc1ccon1)N1CCN(c2ccc(F)cc2Cl)CC1"
  reading_unit: "%"
  reported_value: 4.988
- compound: "CN(CC(=O)Nc1cc(-c2cc(Cl)cc(Cl)c2)[nH]n1)S(C)(=O)=O"
  reading_unit: "%"
  reported_value: 5.087
- compound: "NC(=O)C1CN(Cc2c(O)ccc3oc4c(c23)CCCC4)CCO1 (stereo unspecified)"
  reading_unit: "%"
  reported_value: 24.24
- compound: "CN(CC(=O)Nc1cc(CC2CCCCC2)n[nH]1)S(C)(=O)=O"
  reading_unit: "%"
  reported_value: 66.78
- compound: "CN(CC(=O)Nc1cc(C(C)(C)C)n[nH]1)S(C)(=O)=O"
  reading_unit: "%"
  reported_value: -19.26
- compound: "CCC(CN1CCCC1)n1cncc1-c1cnn(-c2ccc(F)cc2)c1.Cl (stereo unspecified)"
  reading_unit: "%"
  reported_value: 14.1
